Catalogue of binders with associated SPOT peptide array binding signal intensity
# studySystem: AgMyo5
# testName: SPOT peptide array binding signal intensity (averaged, normalized) (arbitrary units (background-subtracted, floor 0; scale differs between SH3 domains)); higher = stronger binding of the SH3 domain to the peptide
// return a plain number; no unit text

PKRRAPPPVPKKPSS: 73.5
NPNRRAPRRPLSTQH: 1.5
PPLPRAPPVPPATFE: 434

Fill in the blank: the reported SPOT peptide array binding signal intensity of `QPWTDQFEKLEKEVS` is ____.
1.5

Fill in: SPOT peptide array binding signal intensity of `RSRRSSFAYPQQVAI` is ___
6.25

// SPOT peptide array binding signal intensity lookup, key: `VAPPPLPNRQLPNLD`
364

Look up SPOT peptide array binding signal intensity: `LTRRFPFLFPFDTRM`
1.5

# lookup: SPOT peptide array binding signal intensity of `QTMRQAPKRPDADVA`
18.8

# query: SPOT peptide array binding signal intensity of entry `MSPLGAPPPPPHKDH`
449

SPOT peptide array binding signal intensity lookup needed for `APPPPPRRATPEKKP` , thanks.
4

Suppose we examine the binder `GKFIPSRPAPKPPSS` ; what SPOT peptide array binding signal intensity value has been reported?
1850

Tell me the measured SPOT peptide array binding signal intensity of `MFLISPPASPPPEFD` , please.
388

Sample `GDHPKGPPPPPPPPD` — what was its SPOT peptide array binding signal intensity?
1010

Tell me the measured SPOT peptide array binding signal intensity of `ATNVPVAPPPPPASL` , please.
468

Ref: the supplement of paper PMC4466140
